- System: Escherichia coli
- assayOverview: Antimicrobial activity against aac(6')-Ib-cr-negative Escherichia coli PU12 harboring GyrA S83L mutant, wild-type GyrB, ParC and qnrS genes by agar dilution method
- Assay type: functional
Overview of recorded log10(MIC) for various compounds
Lab note - MIC converted to log10 from values in µg/mL.

INSERT INTO measurements (smilesnotation, testreadout, number) VALUES
  ('C[C@H]1COc2c(N3CCN(C)CC3)c(F)cc3c(=O)c(C(=O)O)cn1c23.C[C@H]1COc2c(N3CCN(C)CC3)c(F)cc3c(=O)c(C(=O)O)cn1c23.O', 'log10(MIC)', 0.60),
  ('CO/N=C(\C(=O)N[C@@H]1C(=O)N2C(C(=O)O)=C(COC(C)=O)CS[C@H]12)c1csc(N)n1', 'log10(MIC)', 1.20),
  ('CO/N=C(\C(=O)N[C@@H]1C(=O)N2C(C(=O)[O-])=C(C[N+]3(C)CCCC3)CS[C@H]12)c1csc(N)n1', 'log10(MIC)', 0.30);

Query block: Entry under review: NCC[C@H](O)C(=O)N[C@@H]1C[C@H](N)[C@@H](O[C@H]2O[C@H](CN)[C@@H](O)[C@H](O)[C@H]2O)[C@H](O)[C@H]1O[C@H]1O[C@H](CO)[C@@H](O)[C@H](N)[C@H]1O . Reported log10(MIC)?
Result block: 0.90

Query block: Entry under review: CC(C)(O/N=C(\C(=O)N[C@@H]1C(=O)N2C(C(=O)[O-])=C(C[n+]3ccccc3)CS[C@H]12)c1csc(N)n1)C(=O)O . Reported log10(MIC)?
Result block: 0.60

Query block: Entry under review: CO[C@@]1(NC(=O)Cc2cccs2)C(=O)N2C(C(=O)O)=C(COC(N)=O)CS[C@@H]21 . Reported log10(MIC)?
Result block: 0.60

Query block: Entry under review: C[C@@H](O)[C@H]1C(=O)N2C(C(=O)O)=C(S[C@@H]3CN[C@H](C(=O)N(C)C)C3)[C@H](C)[C@H]12 . Reported log10(MIC)?
Result block: -1.80

----------
- System: Enterobacter cloacae
- assayOverview: Antimicrobial activity against aac(6')-Ib-cr-negative Enterobacter cloacae FJ61 harboring GyrA S83I, GyrA D87A, ParC S80I mutant, wild-type GyrB and qnrS genes by agar dilution method
- Type: functional
testReadout: MIC

Guide cases for MIC, answers given:
INSERT INTO measurements (smilesnotation, result) VALUES
  ('C[C@H]1COc2c(N3CCN(C)CC3)c(F)cc3c(=O)c(C(=O)O)cn1c23.C[C@H]1COc2c(N3CCN(C)CC3)c(F)cc3c(=O)c(C(=O)O)cn1c23.O', '> 32 µg/mL'),
  ('NCC[C@H](O)C(=O)N[C@@H]1C[C@H](N)[C@@H](O[C@H]2O[C@H](CN)[C@@H](O)[C@H](O)[C@H]2O)[C@H](O)[C@H]1O[C@H]1O[C@H](CO)[C@@H](O)[C@H](N)[C@H]1O', '2 µg/mL');

Query block: Entry under review: CC(C)(O/N=C(\C(=O)N[C@@H]1C(=O)N2C(C(=O)[O-])=C(C[n+]3ccccc3)CS[C@H]12)c1csc(N)n1)C(=O)O . Reported MIC?
Result block: 16 µg/mL

Query block: Entry under review: C[C@@H](O)[C@H]1C(=O)N2C(C(=O)O)=C(S[C@@H]3CN[C@H](C(=O)N(C)C)C3)[C@H](C)[C@H]12 . Reported MIC?
Result block: 0.25 µg/mL

Query block: Entry under review: Cc1cc(NS(=O)(=O)c2ccc(N)cc2)no1 . Reported MIC?
Result block: 16 µg/mL
